Measured values drawn from ChEMBL document CHEMBL3351452 for this set.

pIC50 values, listed per item
- Tested on: LNCaP
- experiment.notes: Antiproliferative activity against human LNCAP cells assessed as reduction in cell growth after 24 hrs by MTS assay
- Format: functional, cell-based
Worth noting: pIC50 values are minus log10 of concentrations stated in mol/L.

Reference set, count: 10
- given.smiles: "C[C@]12C[C@H](N3CCN(C(=O)[C@@H]4CCCN4C(=O)c4ccc5ccccc5c4)CC3)[C@@H](O)C[C@@H]1CC[C@@H]1[C@@H]2CC[C@]2(C)[C@@H](O)CC[C@@H]12"
  pIC50: 5.80
- given.smiles: "C#C[C@]1(O)CC[C@H]2[C@@H]3CC[C@H]4C[C@H](O)[C@@H](N5CCN(C(=O)[C@@H]6CCCN6C(=O)c6cccc7ccccc67)CC5)C[C@]4(C)[C@H]3CC[C@@]21C"
  pIC50: 4.92
- given.smiles: "C[C@]12C[C@H](N3CCN(C(=O)[C@@H]4CCCN4C(=O)c4ccc5ccccc5n4)CC3)[C@@H](O)C[C@@H]1CC[C@@H]1[C@@H]2CC[C@]2(C)[C@@H](O)CC[C@@H]12"
  pIC50: 7.40
- given.smiles: "C#C[C@]1(O)CC[C@H]2[C@@H]3CC[C@H]4C[C@H](O)[C@@H](N5CCN(C(=O)[C@@H]6CCCN6C(=O)c6ccc7ccccc7c6)CC5)C[C@]4(C)[C@H]3CC[C@@]21C"
  pIC50: 5.35
- given.smiles: "CO[C@H]1CC[C@H]2[C@@H]3CC[C@H]4C[C@H](O)[C@@H](N5CCN(C(=O)[C@@H]6CCCN6C(=O)c6ccc7ccccc7c6)CC5)C[C@]4(C)[C@H]3CC[C@]12C"
  pIC50: 5.15
- given.smiles: "C[C@]12C[C@H](N3CCN(C(=O)[C@@H]4CCCN4C(=O)c4cccc5ccccc45)CC3)[C@@H](O)C[C@@H]1CC[C@@H]1[C@@H]2CC[C@]2(C)C(=O)CC[C@@H]12"
  pIC50: 5.00
- given.smiles: "C#C[C@]1(O)CC[C@H]2[C@@H]3CC[C@H]4C[C@H](O)[C@@H](N5CCN(C(=O)[C@@H]6CCCN6C(=O)c6ccc7ccccc7n6)CC5)C[C@]4(C)[C@H]3CC[C@@]21C"
  pIC50: 5.70
- given.smiles: "C[C@]12C[C@H](N3CCN(C(=O)[C@@H]4CCCN4C(=O)c4ccc5ccccc5n4)CC3)[C@@H](O)C[C@@H]1CC[C@@H]1[C@@H]2CC[C@]2(C)C(=O)CC[C@@H]12"
  pIC50: 6.10
- given.smiles: "C[C@]12C[C@H](N3CCN(C(=O)[C@@H]4CCCN4C(=O)c4cc5ccccc5cn4)CC3)[C@@H](O)C[C@@H]1CC[C@@H]1[C@@H]2CC[C@]2(C)[C@@H](O)CC[C@@H]12"
  pIC50: 7.15
- given.smiles: "COc1cccc2c1C(=O)c1c(O)c3c(c(O)c1C2=O)C[C@@](O)(C(=O)CO)C[C@@H]3O[C@H]1C[C@H](N)[C@H](O)[C@H](C)O1"
  pIC50: 6.70

Lab note: next compound to report on.
INPUT: What measured pIC50 goes with `C[C@]12C[C@H](N3CCN(C(=O)[C@@H]4CCCN4C(=O)c4cccc5ccccc45)CC3)[C@@H](O)C[C@@H]1CC[C@@H]1[C@@H]2CC[C@]2(C)[C@@H](O)CC[C@@H]12` ?
OUTPUT: 6.52

* * *

- experiment.notes: Plasma concentration in Sprague-Dawley rat at 2.3 mg/kg, sc measured at 12 hrs by LC/MS/MS analysis
- Assay type: ADME, organism-based
- Set-up: dose 2.3 mg/kg, route subcutaneous
quantity: log10 concentration at 12 h (log10 of the value in ng/mL)
Please keep in mind that the values are log10 of concentration at 12 h expressed in ng/mL.

Reference set, count: 5
- given.smiles: "C[C@]12C[C@H](N3CCN(C(=O)[C@@H]4CCCN4C(=O)c4ccc5ncccc5c4)CC3)[C@@H](O)C[C@@H]1CC[C@@H]1[C@@H]2CC[C@]2(C)[C@@H](O)CC[C@@H]12"
  log10 concentration at 12 h: 0.11
- given.smiles: "C[C@]12C[C@H](N3CCN(C(=O)[C@@H]4CCCN4C(=O)c4ccc5ccccc5c4)CC3)[C@@H](O)C[C@@H]1CC[C@@H]1[C@@H]2CC[C@@]2(C)[C@H]1CC[C@]2(C)O"
  log10 concentration at 12 h: 1.51
- given.smiles: "C#C[C@]1(O)CC[C@H]2[C@@H]3CC[C@H]4C[C@H](O)[C@@H](N5CCN(C(=O)[C@@H]6CCCN6C(=O)c6ccc7ccccc7c6)CC5)C[C@]4(C)[C@H]3CC[C@@]21C"
  log10 concentration at 12 h: 1.70
- given.smiles: "C[C@]12C[C@H](N3CCN(C(=O)[C@@H]4CCCN4C(=O)c4ccc5ccccc5n4)CC3)[C@@H](O)C[C@@H]1CC[C@@H]1[C@@H]2CC[C@]2(C)C(=O)CC[C@@H]12"
  log10 concentration at 12 h: -0.52
- given.smiles: "CO[C@H]1CC[C@H]2[C@@H]3CC[C@H]4C[C@H](O)[C@@H](N5CCN(C(=O)[C@@H]6CCCN6C(=O)c6ccc7ccccc7c6)CC5)C[C@]4(C)[C@H]3CC[C@]12C"
  log10 concentration at 12 h: 0.88

INPUT: What measured log10 concentration at 12 h goes with `C[C@]12C[C@H](N3CCN(C(=O)[C@@H]4CCCN4C(=O)c4ccc5ccccc5c4)CC3)[C@@H](O)C[C@@H]1CC[C@@H]1[C@@H]2CC[C@]2(C)[C@@H](O)CC[C@@H]12` ?
OUTPUT: 0.94

INPUT: What measured log10 concentration at 12 h goes with `C#C[C@]1(O)CC[C@H]2[C@@H]3CC[C@H]4C[C@H](O)[C@@H](N5CCN(C(=O)[C@@H]6CCCN6C(=O)c6ccc7ccccc7n6)CC5)C[C@]4(C)[C@H]3CC[C@@]21C` ?
OUTPUT: 1.20

INPUT: What measured log10 concentration at 12 h goes with `C[C@]12C[C@H](N3CCN(C(=O)[C@@H]4CCCN4C(=O)c4cc5ccccc5cn4)CC3)[C@@H](O)C[C@@H]1CC[C@@H]1[C@@H]2CC[C@]2(C)[C@@H](O)CC[C@@H]12` ?
OUTPUT: 0.43

* * *

- experiment.notes: Plasma concentration in Sprague-Dawley rat at 2.3 mg/kg, sc measured at 12 hrs by LC/MS/MS analysis
- Assay type: ADME, organism-based
- Design: dose 2.3 mg/kg, route subcutaneous
quantity: concentration at 12 h (ng/mL)
Quick note: give the figure in ng/mL, leave out the unit.

- given.smiles: "C[C@]12C[C@H](N3CCN(C(=O)[C@@H]4CCCN4C(=O)c4cnc5ccccc5c4)CC3)[C@@H](O)C[C@@H]1CC[C@@H]1[C@@H]2CC[C@]2(C)[C@@H](O)CC[C@@H]12"
  quantity: "concentration at 12 h"
  scale.unit: "ng/mL"
  measured: 2.3
- given.smiles: "C[C@]12C[C@H](N3CCN(C(=O)[C@@H]4CCCN4C(=O)c4ccc5ccccc5n4)CC3)[C@@H](O)C[C@@H]1CC[C@@H]1[C@@H]2CC[C@]2(C)[C@@H](O)CC[C@@H]12"
  quantity: "concentration at 12 h"
  scale.unit: "ng/mL"
  measured: 3.1

Lab note: next compound to report on.
INPUT: What measured concentration at 12 h goes with `C[C@]12C[C@H](N3CCN(C(=O)[C@@H]4CCCN4C(=O)c4cc5ccccc5[n+]([O-])c4)CC3)[C@@H](O)C[C@@H]1CC[C@@H]1[C@@H]2CC[C@]2(C)[C@@H](O)CC[C@@H]12` ?
OUTPUT: 2.9
